Target: T1, FZD3 CRD (Homo sapiens, UniProt Q9NPG1)
T1 construct: CRD of FZD1, FZD2, FZD3, FZD4, FZD5, FZD6, FZD7, FZD8, FZD9 or FZD10; GPI anchor signal (C); expressed in transfected cells; host or cells: CHO cells, lentiviral pLenti-puro
T1 sequence (Q9NPG1 23-136 limits assumed): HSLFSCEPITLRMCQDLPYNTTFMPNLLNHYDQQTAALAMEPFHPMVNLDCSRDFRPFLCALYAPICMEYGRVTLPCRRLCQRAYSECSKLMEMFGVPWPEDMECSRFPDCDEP
Assay: Immunofluorescence of anti-FZD5 Fab binding to CHO cells overexpressing Frizzled CRD
Set-up: key: −: no binding; +: very weak binder; ++: weak binder; +++: good binder; ++++: very good binder
EXPERIMENTAL_READOUT: Immunofluorescence binding, Frizzled CRD overexpressed on CHO cells: FZD3

INSERT INTO measurements (molecule, recorded_result) VALUES
  ('Fab-2923: anti-FZD5 Fab with antibody variable region Fv-2923; CDR SEQ ID NOs: 35, 36, 62, 100, 138, 162 (antibody, V domains shown) VH: EVQLVESGGGLVQPGGSLRLSCAASGFNLYYYYMHWVRQAPGKGLEWVASIYSSSGSTSYADSVKGRFTISADTSKNTAYLQMNSLRAEDTAVYYCARGAMDYWGQGTLVTVSS VL: DIQMTQSPSSLSASVGDRVTITCRASQSVSSAVAWYQQKPGKAPKLLIYSASSLYSGVPSRFSGSRSGTDFTLTISSLQPEDFATYYCQQWYGYSALITFGQGTKVEIK', '−');
